# assay: Quantitative High-Throughput drug screen in 47 multiple myeloma cell lines against the NCATS MIPE library collection: OCIMY7_PLB cell viability assay (AID 1918987); note: nearly all actives have a fitted effect of over 65% in size; note: potency is the fitted concentration of half-maximal effect
# measurement_conditions: OCI-MY7 myeloma viability, CellTiter-Glo ATP, 48 h
Records with an inconclusive call do not appear. Activity calls are given as the source filed them. Calls come from the whole dose curve; as a rule, active = well fitted cell-killing curve with a large enough effect; inconclusive = small, poorly fitted or top-dose-only effect, or effect the other way; inactive = no such curve, though single readings can be large or run the other way.
reported_endpoint: Potency

Some entries whose results are on file:
# compound, Potency
measured = [
    ("Cc1ncc(-c2ccnc(Nc3ccc(S(C)(=O)=O)cc3)n2)n1C(C)C", "833 nM (active)"),
    ("CCC(C(=O)O)C1CCC(C)C(C(C)C(O)C(C)C(=O)C(CC)C2OC3(C=CC(O)[C@@]4(CC[C@](C)(C5CC[C@@](O)(CC)C(C)O5)O4)O3)C(C)CC2C)O1 (stereo not given in full)", "2960 nM (active)"),
    ("COc1cc(O)c2c(c1)C1OC1C[C@H](O)[C@H](O)C(=O)C=CC[C@H](C)OC2=O (stereo not given in full)", "372 nM (active)"),
    ("CC[C@H]1OC(=O)[C@H](C)[C@@H](O[C@H]2C[C@@](C)(OC)[C@@H](O)[C@H](C)O2)[C@H](C)[C@@H](O[C@@H]2O[C@H](C)C[C@H](N(C)C)[C@@H]2O)[C@](C)(OC)C[C@@H](C)C(=O)[C@H](C)[C@@H](O)[C@]1(C)O", "inactive"),
    ("CCOc1cc2c(c(F)c1OCC)C(=N)N(CC(=O)c1cc(N3CCOCC3)c(OC)c(C(C)(C)C)c1)C2", "7430 nM (active)"),
]

*Q* Please look up its Potency: CS[C@H]1SC[C@@H]2C(=O)N(C)[C@H](C(C)C)C(=O)OC[C@H](NC(=O)c3cnc4ccccc4n3)C(=O)N[C@H](C)C(=O)N(C)[C@@H]1C(=O)N(C)[C@H](C(C)C)C(=O)OC[C@H](NC(=O)c1cnc3ccccc3n1)C(=O)N[C@H](C)C(=O)N2C
*A* 41.8 nM (active)

*Q* Now the same for C=CCNc1c(O)cc2c(O)c1C[C@@H](C)C[C@H](OC)[C@@H](O)[C@@H](C)C=C(C)[C@H](OC(N)=O)[C@@H](OC)C=CC=C(C)C(=O)N2
*A* 209 nM (active)

*Q* Now the same for O=C(C=CC=Cc1ccc2c(c1)OCO2)N1CCCCC1
*A* inactive

*Q* Now the same for C=C1C(=CC=C2CCC[C@]3(C)[C@@H]([C@H](C)CCCC(C)(C)O)CC[C@@H]23)C[C@@H](O)C[C@@H]1O
*A* 6620 nM (active)

*Q* Now the same for Nc1ncn([C@@H]2O[C@H](CO)[C@@H](O)[C@@H]2O)c(=O)n1
*A* 3720 nM (active)

*Q* Now the same for CC1=C(C(=O)Nc2cc3cn[nH]c3cc2F)C(c2ccc(Cl)cc2F)N=C(c2ccnc(Cl)c2)N1 (stereo not given)
*A* 5900 nM (active)

*Q* Now the same for O=C(C=CC#Cc1cccc(NS(=O)(=O)c2ccccc2)c1)NO
*A* 372 nM (active)

*Q* Now the same for CNC(=O)Nc1ccc(-c2nc(N3CC4CCC(C3)O4)c3cnn(C4CCC5(CC4)OCCO5)c3n2)cc1
*A* 3720 nM (active)

*Q* Now the same for Oc1ccc(-c2ccc(-c3cc(Nc4cccc(CNC5CC5)c4)n[nH]3)cc2)c(O)c1
*A* 4690 nM (active)

*Q* Now the same for Cn1cc(CNCC2CCN(c3ncc(C(=O)NO)cn3)CC2)c2ccccc21
*A* 33.2 nM (active)
